- Experiment description: recombinant UMI read abundance after kanamycin selection (control-corrected) (log10(CPM+1)); higher = more efficient recombination; extreme values may be limits of the assay; sequences stand for … in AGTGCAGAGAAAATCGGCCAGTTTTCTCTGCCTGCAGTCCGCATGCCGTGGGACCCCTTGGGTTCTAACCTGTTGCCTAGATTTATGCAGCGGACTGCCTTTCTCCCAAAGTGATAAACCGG…AGGTTGGTTTCACT; site = the 11-nt donor;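 note: IS621 bridge recombinase in Escherichia coli cells against a fixed T5 target plasmid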
Assay readout: recombinant UMI read abundance (log10)

Here are 2 sequences. What values of recombinant UMI read abundance (log10) were reported for them?
1. TCTGGCGCATGGACCGGTTTTCCCGGTAATCCGTATTTGCC (site TCTGGCGCTGG)
2. CCCCGCACATGGACCGGTTTTCCCGGTAATCCGTATTTGTA (site CCCCCCACTTA)

Key:
[0, 0.00659]

Here are 3 sequences. What values of recombinant UMI read abundance (log10) were reported for them?
1. TTAGCTGCATGGACCGGTTTTCCCGGTAATCCGTATTTGTT (site TTAGCTGCTCA)
2. GTATGATCATGGACCGGTTTTCCCGGTAATCCGTATTTGGG (site GTATGATCTCC)
3. CAATGCTCATGGACCGGTTTTCCCGGTAATCCGTATTTGAA (site CAATGGTCTTT)

Key:
[0.187, 0.738, 0.0124]
